Assign IC50 to each entry below.
# Target or system: Coagulation factor V (Homo sapiens, UniProt P12259)
# Sequence (P12259 29-737 limits assumed): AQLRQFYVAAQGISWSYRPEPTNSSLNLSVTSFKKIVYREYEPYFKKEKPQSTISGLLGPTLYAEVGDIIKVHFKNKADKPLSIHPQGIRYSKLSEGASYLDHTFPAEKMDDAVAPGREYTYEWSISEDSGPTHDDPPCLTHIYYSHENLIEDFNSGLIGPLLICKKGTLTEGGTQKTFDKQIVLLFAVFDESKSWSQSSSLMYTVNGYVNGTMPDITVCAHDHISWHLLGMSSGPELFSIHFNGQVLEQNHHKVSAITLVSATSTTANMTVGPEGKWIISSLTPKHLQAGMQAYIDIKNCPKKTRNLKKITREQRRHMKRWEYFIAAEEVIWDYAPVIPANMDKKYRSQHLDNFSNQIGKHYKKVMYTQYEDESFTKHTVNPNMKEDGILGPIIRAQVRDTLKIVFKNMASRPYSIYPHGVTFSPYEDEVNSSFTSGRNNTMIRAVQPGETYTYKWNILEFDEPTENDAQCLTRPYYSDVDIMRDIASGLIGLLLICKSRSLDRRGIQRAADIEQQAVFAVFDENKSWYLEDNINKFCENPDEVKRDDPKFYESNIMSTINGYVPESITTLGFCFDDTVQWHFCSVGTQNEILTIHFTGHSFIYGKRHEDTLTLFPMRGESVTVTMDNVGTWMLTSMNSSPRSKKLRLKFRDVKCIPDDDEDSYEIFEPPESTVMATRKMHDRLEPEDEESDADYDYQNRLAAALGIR
# Sequence (P12259 1574-2224 limits assumed): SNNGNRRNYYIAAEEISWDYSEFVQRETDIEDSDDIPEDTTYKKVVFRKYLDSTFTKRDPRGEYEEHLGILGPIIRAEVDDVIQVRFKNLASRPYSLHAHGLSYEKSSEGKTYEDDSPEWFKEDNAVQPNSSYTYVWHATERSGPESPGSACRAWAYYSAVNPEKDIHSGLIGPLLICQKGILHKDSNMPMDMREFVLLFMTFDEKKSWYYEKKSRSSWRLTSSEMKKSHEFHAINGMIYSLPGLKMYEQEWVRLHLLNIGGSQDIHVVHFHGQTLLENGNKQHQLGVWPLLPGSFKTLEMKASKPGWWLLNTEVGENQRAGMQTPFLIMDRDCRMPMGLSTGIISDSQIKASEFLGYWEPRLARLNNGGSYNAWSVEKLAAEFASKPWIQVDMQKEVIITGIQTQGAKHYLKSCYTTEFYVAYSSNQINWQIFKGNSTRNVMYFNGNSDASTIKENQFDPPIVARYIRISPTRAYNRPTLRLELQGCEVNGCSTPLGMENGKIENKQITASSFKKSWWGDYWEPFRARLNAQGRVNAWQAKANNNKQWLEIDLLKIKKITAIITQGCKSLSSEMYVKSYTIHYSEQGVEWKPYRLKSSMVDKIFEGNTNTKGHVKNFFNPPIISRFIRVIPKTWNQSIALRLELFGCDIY
# Run description: Inhibition of human recombinant factor 5a C2 domain binding to immobilized phospholipid by surface plasmon resonance assay
Dear colleague, please return just the value in µM, with no unit written.

Can you share its IC50? I mean this compound: Cc1cc(-c2ccc(/C=C3/C(=O)NN(c4cccc(Cl)c4)C3=O)o2)c([N+](=O)[O-])cc1C 7.4

Can you share its IC50? I mean this compound: CC1=NN(c2cccc(C(=O)O)c2)C(=O)/C1=C\c1ccc(-c2ccc([N+](=O)[O-])cc2)o1 6.71

Can you share its IC50? I mean this compound: N=c1n(CCN2CCCCC2)c2ccccc2n1CC(O)COc1ccc(Cl)cc1Cl (single isomer, unassigned) 14
